method-notes: qHTS of pediatric cancer cell lines to identify multiple opportunities for drug repurposing: Primary screen for TC32 cells (AID 1347089); also: nearly all actives have a fitted effect of over 60% in size
experimental-parameters: TC32 Ewing sarcoma viability, CellTiter-Glo luminescence, 48 h; series mostly up to 45.8 µM
Results filed as inconclusive are left out. Calls of active or inactive are those of the source. Calls follow the shape of the dose curve; as a rule, active = well fitted cell-killing curve with a large enough effect; inconclusive = small, poorly fitted or top-dose-only effect; inactive = flat fitted curve, though single readings scatter.
Respond only with the outcome that fits, drawn from active, inactive

Some solved cases for reference:
Hi, sorry to bother you, what did the test record for O=C(O)C1=CC(O)C(O)[C@H](O)C1 (some centres undefined) ?
inactive

Tell me the assay call for NC[C@H]1O[C@H](O[C@@H]2[C@@H](O)[C@@H](O[C@H]3O[C@H](CO)[C@@H](O)[C@H](N)[C@@H]3O)[C@H](N)C[C@@H]2N)[C@H](O)[C@@H](O)[C@H]1O please.
inactive

Could you please tell me the result logged for OC[C@H]1O[C@@H](OCCc2ccc(O)cc2)[C@H](O)[C@@H](O)[C@H]1O in this assay?
inactive

Write down the call the test reported for this molecule. Item: COc1ccc(CCN(C)CCCOc2ccc(S(=O)(=O)c3[nH]c4ccccc4c3C(C)C)cc2)cc1OC
inactive

Field: outcome | Entry: COc1ccc(-c2cc(=O)c3c(O)cc(O[C@@H]4O[C@H](CO[C@@H]5O[C@@H](C)[C@H](O)[C@@H](O)[C@@H]5O)[C@@H](O)[C@H](O)[C@@H]4O)cc3o2)cc1O
inactive

Next:
How did this test come out for Cc1cc(C(C)Nc2ccccc2)c2nc(N3CCOCC3)cc(=O)n2c1 (centres undefined) ?
inactive

Which result was noted for this molecule in the test: Nc1[nH]nc2nnc(-c3c(-c4ccccc4)nn4ccccc34)cc12
inactive

Recorded test outcome, item CN1CCC(COc2cnc(-c3cccc(Cn4nc(-c5cccc(C#N)c5)ccc4=O)c3)nc2)CC1
inactive
